Tested on: HB4a erbB-2 cells
assay.overview: Cell proliferation assay, HB4a transformed by over-expression of c-erbB-2
Format: cell-based, human
run.conditions: Homo sapiens, HB4a, 96 h; 4 days, methylene blue staining; read-out: Cell Proliferation HB4a erbB-2 IC50
pIC50: −log10 of the molar value. Counter-ions that a name gives are not always drawn.
Assign class by pIC50: not lower than 6 means true; lower than 6 means false.

Example results:
CN(C)c1cc2c(Nc3ccc4c(cnn4Cc4ccc(O)cc4)c3)ncnc2cn1 [Example 38] | false
CNc1cc2c(Nc3ccc4c(cnn4Cc4ccccc4)c3)ncnc2cn1 [Example 37] | true
CN(CCO)c1cc2c(Nc3ccc4c(cnn4Cc4ccccc4)c3)ncnc2cn1 [Example 3] | true
c1ccc(COc2cc3c(Nc4ccc5c(cnn5Cc5ccccc5)c4)ncnc3cn2)cc1 [Example 33, Hydrochloride] | false
CS(=O)(=O)CCNCc1ccc(-c2cc3c(Nc4ccc5c(cnn5Cc5ccccc5)c4)ncnc3cn2)o1 [Example 34, Hydrochloride] | true

Could you verify whether the entry CN(C)c1cc2c(Nc3ccc4nc(Cc5ccccc5)[nH]c4c3)ncnc2cn1 [Example 7] shows pIC50 of no less than 6?
false

Could you verify whether the entry CN(C)c1cc2c(Nc3ccc4c(cnn4Cc4ccccc4F)c3)ncnc2cn1 [Example 15, Hydrochloride] shows pIC50 of no less than 6?
true

Could you verify whether the entry CN1CCN(c2cc3c(Nc4ccc5c(cnn5Cc5ccccc5)c4)ncnc3cn2)CC1 [Example 32] shows pIC50 of no less than 6?
true

Could you verify whether the entry c1ccc(Cn2ncc3cc(Nc4ncnc5cnccc45)ccc32)cc1 [Example 4] shows pIC50 of no less than 6?
false

Could you verify whether the entry Cc1nnc(-c2cc3c(Nc4ccc5c(cnn5Cc5cccc(F)c5)c4)ncnc3cn2)o1 [Example 30, Hydrochloride] shows pIC50 of no less than 6?
false

Could you verify whether the entry O=C(CN1CCN(c2cc3c(Nc4ccc5c(cnn5Cc5ccccc5)c4)ncnc3cn2)CC1)N1CCOCC1 [Example 28] shows pIC50 of no less than 6?
true

====

Parameter: IC50. Scope: all listed entries.
assay.system: EGFr isolated from solubilised A431 cell membranes (Homo sapiens, UniProt P00533)
Construct: EGFr isolated from solubilised A431 cell membranes; endogenous in cells
Sequence (P00533 25-1210): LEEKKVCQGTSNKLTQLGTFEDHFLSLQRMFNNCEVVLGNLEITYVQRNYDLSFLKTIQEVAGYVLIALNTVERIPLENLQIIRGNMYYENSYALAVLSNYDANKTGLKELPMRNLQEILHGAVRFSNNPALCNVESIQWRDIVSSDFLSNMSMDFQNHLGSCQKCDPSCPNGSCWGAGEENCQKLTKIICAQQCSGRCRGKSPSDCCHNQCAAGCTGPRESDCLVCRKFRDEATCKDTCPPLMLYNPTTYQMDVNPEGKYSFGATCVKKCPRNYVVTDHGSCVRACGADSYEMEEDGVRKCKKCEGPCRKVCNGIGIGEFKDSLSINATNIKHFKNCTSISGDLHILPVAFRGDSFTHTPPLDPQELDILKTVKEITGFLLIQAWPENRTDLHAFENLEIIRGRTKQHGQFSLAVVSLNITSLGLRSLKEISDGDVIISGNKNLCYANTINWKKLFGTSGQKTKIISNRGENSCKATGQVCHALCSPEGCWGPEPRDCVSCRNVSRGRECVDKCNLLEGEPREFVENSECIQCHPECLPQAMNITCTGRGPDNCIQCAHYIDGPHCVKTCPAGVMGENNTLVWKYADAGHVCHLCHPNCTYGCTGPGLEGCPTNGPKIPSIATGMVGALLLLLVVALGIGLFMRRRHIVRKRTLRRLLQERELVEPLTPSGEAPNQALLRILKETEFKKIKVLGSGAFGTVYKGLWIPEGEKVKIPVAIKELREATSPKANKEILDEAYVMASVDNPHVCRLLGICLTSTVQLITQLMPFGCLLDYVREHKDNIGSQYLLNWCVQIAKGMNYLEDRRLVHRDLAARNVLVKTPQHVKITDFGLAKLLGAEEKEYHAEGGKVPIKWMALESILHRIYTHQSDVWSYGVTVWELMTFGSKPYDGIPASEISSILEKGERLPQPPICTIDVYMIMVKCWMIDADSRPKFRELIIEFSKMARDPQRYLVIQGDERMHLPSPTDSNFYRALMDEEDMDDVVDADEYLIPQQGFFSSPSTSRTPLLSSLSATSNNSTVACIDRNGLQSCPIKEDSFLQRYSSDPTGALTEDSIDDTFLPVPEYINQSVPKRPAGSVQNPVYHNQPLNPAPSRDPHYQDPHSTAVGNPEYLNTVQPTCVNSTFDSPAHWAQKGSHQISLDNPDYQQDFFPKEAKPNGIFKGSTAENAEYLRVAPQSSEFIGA
assay.overview: Substrate phosphorylation assay, EGFr
run.conditions: ATP and peptide at Km, 30 min, room temperature
Counter-ions that a name gives are not always drawn.

Completed entries (count: 6):
CN(C)c1cc2c(Nc3ccc4c(S(=O)(=O)c5ccccc5)c[nH]c4c3)ncnc2cn1 [Example 19, Hydrochloride] | 540 nM
Cc1nnc(-c2cc3c(Nc4ccc5c(cnn5Cc5cccc(F)c5)c4)ncnc3cn2)o1 [Example 30, Hydrochloride] | 2 nM
c1ccc(Cn2ncc3cc(Nc4ncnc5cnc(-n6ccnc6)cc45)ccc32)cc1 [Example 20] | 4 nM
Cn1cncc1-c1cc2c(Nc3ccc4c(cnn4Cc4ccccc4)c3)ncnc2cn1 [Example 11] | 15 nM
CNc1cc2c(Nc3ccc4c(cnn4Cc4ccccc4)c3)ncnc2cn1 [Example 37] | 30 nM
c1ccc(Cn2ncc3cc(Nc4ncnc5cnc(-n6ccnn6)cc45)ccc32)cc1 [Example 23] | 31 nM

Here is another molecule to look at.
Find the measured IC50 of CN(C)c1cc2c(Nc3ccc4c(cnn4Cc4ccccn4)c3)ncnc2cn1 [Example 12, Hydrochloride] and report it.
77 nM

====

System: HB4a erbB-2 cells
assay.overview: Cell proliferation assay, HB4a transformed by over-expression of c-erbB-2
Assay type: cell-based, human
run.conditions: Homo sapiens, HB4a, 96 h; 4 days, methylene blue staining; read-out: Cell Proliferation HB4a erbB-2 IC50
Where a name gives a salt, the structure may show the parent alone.
readout.type: pIC50
# log scale: pIC50 equals minus log10 of the concentration in mol/L

Find the measured pIC50 of Cn1cncc1-c1cc2c(Nc3ccc4c(cnn4Cc4ccccc4)c3)ncnc2cn1 [Example 11] and report it.
5.85

Find the measured pIC50 of CN(C)c1cc2c(Nc3ccc4c(ccn4S(=O)(=O)c4ccccc4)c3)ncnc2cn1 [Example 18, Hydrochloride] and report it.
7.68

Find the measured pIC50 of CS(=O)(=O)CCNC(=O)c1ccc(-c2cc3c(Nc4ccc5c(cnn5Cc5ccccc5)c4)ncnc3cn2)o1 [Example 36, Hydrochloride] and report it.
5.51

Find the measured pIC50 of CN(C)c1cc2c(Nc3ccc4c(cnn4Cc4cccc(F)c4)c3)ncnc2cn1 [Example 16, Hydrochloride] and report it.
7.36

Find the measured pIC50 of O=C(O)c1ccc(-c2cc3c(Nc4ccc5c(cnn5Cc5ccccc5)c4)ncnc3cn2)o1 [Example 35, Hydrochloride] and report it.
4.57

Find the measured pIC50 of CC(C)NC(=O)CN1CCN(c2cc3c(Nc4ccc5c(cnn5Cc5ccccc5)c4)ncnc3cn2)CC1 [Example 27] and report it.
6.42

Find the measured pIC50 of CN(C)c1cc2c(Nc3ccc4c(cnn4Cc4cccnc4)c3)ncnc2cn1 [Example 13, Hydrochloride] and report it.
6.62

Find the measured pIC50 of NC(=O)[C@@H]1CCCN1Cc1ccc(-c2cc3c(Nc4ccc5c(cnn5Cc5ccccc5)c4)ncnc3cn2)o1 [Example 10, Hydrochloride] and report it.
7.15

====

Tested on: HB4a ras cells
assay.overview: Cell proliferation assay, HB4a transfected with ras (general toxicity comparison)
Format: cell-based, human
run.conditions: 4 days, methylene blue staining; read-out: Cell Proliferation HB4a ras IC50
Procedure: The cell proliferation assay uses an immortalised human breast epithelial cell line (HB4a) which has been transformed by over-expression of c-erbB-2. Growth of these cells in low serum is dependent upon the c-erbB-2 tyrosine kinase activity. The specificity of the effect of the test compounds on tyrosine kinase dependent growth over general toxicity is assessed by comparison to an HB4a cell line which has been transfected with ras. […]
Where a name gives a salt, the structure may show the parent alone.
Parameter: IC50. Scope: all listed entries.
The figure you give is taken to be in µM; do not add the unit.

Completed entries (count: 4):
CCN(C)c1cc2c(Nc3ccc4c(cnn4Cc4ccccc4)c3)ncnc2cn1 | 8.9
CN(C)c1cc2c(Nc3ccc4c(cnn4Cc4ccc(F)cc4)c3)ncnc2cn1 [Example 17, Hydrochloride] | 7.6
c1ccc(Cn2ncc3cc(Nc4ncnc5cnc(-n6ccnn6)cc45)ccc32)cc1 | 22
c1ccc(Cn2ncc3cc(Nc4ncnc5cnc(-n6cncn6)cc45)ccc32)cc1 | 18

Here is another compound to look at.
Find the measured IC50 of c1ccc(Cn2ncc3cc(Nc4ncnc5cnc(-n6nccn6)cc45)ccc32)cc1 and report it.
18

====

Parameter: pIC50. Scope: all listed entries.
assay.system: c-erbB-4 (baculovirus expressed recombinant intracellular domain) (Homo sapiens, UniProt Q15303)
Construct: baculovirus expressed, recombinant constructs of the intracellular domains of c-erbB-2 and c-erbB-4 that are constitutively active
Sequence (Q15303 676-1308 limits assumed): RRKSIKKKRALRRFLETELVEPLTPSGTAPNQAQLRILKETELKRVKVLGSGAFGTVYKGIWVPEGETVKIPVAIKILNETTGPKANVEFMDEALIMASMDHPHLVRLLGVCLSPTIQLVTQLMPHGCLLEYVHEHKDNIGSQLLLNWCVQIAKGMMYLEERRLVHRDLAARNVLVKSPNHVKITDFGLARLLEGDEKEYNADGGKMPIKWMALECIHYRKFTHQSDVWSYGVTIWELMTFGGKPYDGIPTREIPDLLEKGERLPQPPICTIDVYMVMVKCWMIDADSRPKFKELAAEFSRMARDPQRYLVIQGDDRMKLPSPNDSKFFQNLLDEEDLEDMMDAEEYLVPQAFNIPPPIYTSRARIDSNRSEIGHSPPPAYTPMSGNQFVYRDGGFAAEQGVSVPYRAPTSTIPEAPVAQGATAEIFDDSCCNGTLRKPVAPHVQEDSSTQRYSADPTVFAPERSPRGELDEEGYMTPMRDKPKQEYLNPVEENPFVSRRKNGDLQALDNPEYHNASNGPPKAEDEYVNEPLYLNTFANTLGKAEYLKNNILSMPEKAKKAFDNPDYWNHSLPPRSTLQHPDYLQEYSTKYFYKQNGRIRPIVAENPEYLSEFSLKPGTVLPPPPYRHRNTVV
assay.overview: Substrate phosphorylation assay, c-erbB-4
run.conditions: ATP and peptide at Km, 30 min, room temperature
Structures can show the parent of a compound that is named as a salt.
# log scale: pIC50 equals minus log10 of the concentration in mol/L

Completed entries (count: 8):
CN1CCN(c2cc3c(Nc4ccc5c(cnn5Cc5ccccc5)c4)ncnc3cn2)CC1 | 6.85
CN(C)c1cc2c(Nc3ccc4c(S(=O)(=O)c5ccccc5)c[nH]c4c3)ncnc2cn1 [Example 19, Hydrochloride] | 6.89
c1ccc(COc2cc3c(Nc4ccc5c(cnn5Cc5ccccc5)c4)ncnc3cn2)cc1 [Example 33, Hydrochloride] | 5.57
Cn1cncc1-c1cc2c(Nc3ccc4c(cnn4Cc4ccccc4)c3)ncnc2cn1 | 7.26
CN(C)c1cc2c(Nc3ccc4c(cnn4Cc4ccccc4)c3)ncnc2cn1 | 7.70
Cc1nnc(-c2cc3c(Nc4ccc5c(cnn5Cc5ccccc5)c4)ncnc3cn2)o1 [Example 29, Hydrochloride] | 5.26
O=C(CN1CCN(c2cc3c(Nc4ccc5c(cnn5Cc5ccccc5)c4)ncnc3cn2)CC1)N1CCOCC1 | 6.77
CN(C)c1cc2c(Nc3ccc4c(ccn4S(=O)(=O)c4ccccc4)c3)ncnc2cn1 [Example 18, Hydrochloride] | 5.77

Here is another compound to look at.
Find the measured pIC50 of Clc1cc2c(Nc3ccc4c(cnn4Cc4ccccc4)c3)ncnc2cn1 [Example 1, Hydrochloride] and report it.
7.32

====

Parameter: pIC50. Scope: all listed entries.
assay.system: c-erbB-2 (baculovirus expressed recombinant intracellular domain) (Homo sapiens, UniProt P04626)
Construct: baculovirus expressed, recombinant constructs of the intracellular domains of c-erbB-2 and c-erbB-4 that are constitutively active; made in house
Sequence (P04626 676-1255 limits assumed): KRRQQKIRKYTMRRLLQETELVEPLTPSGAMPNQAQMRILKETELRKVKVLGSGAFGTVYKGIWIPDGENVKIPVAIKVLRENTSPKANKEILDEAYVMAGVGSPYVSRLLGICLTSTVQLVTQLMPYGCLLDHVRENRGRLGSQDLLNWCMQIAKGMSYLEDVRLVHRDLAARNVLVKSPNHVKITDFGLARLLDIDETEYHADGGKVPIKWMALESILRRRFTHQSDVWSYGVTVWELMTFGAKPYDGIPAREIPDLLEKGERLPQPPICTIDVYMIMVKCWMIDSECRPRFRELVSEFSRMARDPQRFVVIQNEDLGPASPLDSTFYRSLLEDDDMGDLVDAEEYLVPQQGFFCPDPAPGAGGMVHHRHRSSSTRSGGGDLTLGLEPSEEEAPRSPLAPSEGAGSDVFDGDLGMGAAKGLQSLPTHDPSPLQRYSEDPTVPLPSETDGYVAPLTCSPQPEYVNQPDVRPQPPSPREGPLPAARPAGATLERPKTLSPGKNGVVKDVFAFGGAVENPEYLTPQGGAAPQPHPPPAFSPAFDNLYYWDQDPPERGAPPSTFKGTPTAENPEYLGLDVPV
assay.overview: Substrate phosphorylation assay, c-erbB-2
Assay type: biochemical
run.conditions: ATP and peptide at Km, 30 min, room temperature
Counter-ions that a name gives are not always drawn.
# log scale: pIC50 equals minus log10 of the concentration in mol/L

CS(=O)(=O)CCNCc1ccc(-c2cc3c(Nc4ccc5c(cnn5Cc5ccccc5)c4)ncnc3cn2)o1 [Example 34, Hydrochloride] | 7.82
NC(=O)[C@@H]1CCCN1Cc1ccc(-c2cc3c(Nc4ccc5c(cnn5Cc5ccccc5)c4)ncnc3cn2)o1 [Example 10, Hydrochloride] | 8.22
CN(C)c1cc2c(Nc3ccc4c(S(=O)(=O)c5ccccc5)c[nH]c4c3)ncnc2cn1 [Example 19, Hydrochloride] | 8.22
Cn1cncc1-c1cc2c(Nc3ccc4c(cnn4Cc4ccccc4)c3)ncnc2cn1 | 8.05

Find the measured pIC50 of CN(CCO)c1cc2c(Nc3ccc4c(cnn4Cc4ccccc4)c3)ncnc2cn1 and report it.
8.15

Find the measured pIC50 of CN(C)c1cc2c(Nc3ccc4c(ccn4Cc4ccccc4)c3)ncnc2cn1 and report it.
7.96

Find the measured pIC50 of CN(C)c1cc2c(Nc3ccc4c(cnn4Cc4cccc(F)c4)c3)ncnc2cn1 [Example 16, Hydrochloride] and report it.
8.05

Find the measured pIC50 of CN(C)c1cc2c(Nc3ccc4c(cnn4Cc4ccccc4F)c3)ncnc2cn1 [Example 15, Hydrochloride] and report it.
8.15

Find the measured pIC50 of CN(C)c1cc2c(Nc3ccc4nc(Cc5ccccc5)[nH]c4c3)ncnc2cn1 and report it.
8.15
